The values you see were collected from patent US8481456B2.

The compounds listed here are annotated with their Efficacy in %, found.
System: Botrytis cinerea
test_description: Botrytis test (beans)/preventive
cond: 100 ppm a.i.; 2 days after the inoculation
recorded_endpoint: Efficacy in %, found (%)

1. C/C(=N\C#N)N(C)Cc1ccc(Cl)nc1 [(4A.1), acetamiprid]
0
2. CNC(=O)c1cc(C#N)cc(C)c1NC(=O)c1cc(Br)nn1-c1ncccc1Cl [(26.2), cyantraniliprole (cyazypyr)]
0
3. CNC(=O)c1cc(Cl)cc(C)c1NC(=O)c1cc(Br)nn1-c1ncccc1Cl [(26.1), chloranthraniliprole (rynaxypyr)]
0
4. CN1COCN(Cc2cnc(Cl)s2)/C1=N\[N+](=O)[O-] [(4A.7), thiamethoxam]
0
